target: UniProtKB Q07820; test: Cell free Mcl-1:Bim affinity assay (fluorescence polarization competition); type: binding; settings: 15 nM MCL-1, 5 nM FITC-Bim, 1 hour at room temperature; numeric values; read-out: BIM_Ki
Sequence (Q07820 whole entry): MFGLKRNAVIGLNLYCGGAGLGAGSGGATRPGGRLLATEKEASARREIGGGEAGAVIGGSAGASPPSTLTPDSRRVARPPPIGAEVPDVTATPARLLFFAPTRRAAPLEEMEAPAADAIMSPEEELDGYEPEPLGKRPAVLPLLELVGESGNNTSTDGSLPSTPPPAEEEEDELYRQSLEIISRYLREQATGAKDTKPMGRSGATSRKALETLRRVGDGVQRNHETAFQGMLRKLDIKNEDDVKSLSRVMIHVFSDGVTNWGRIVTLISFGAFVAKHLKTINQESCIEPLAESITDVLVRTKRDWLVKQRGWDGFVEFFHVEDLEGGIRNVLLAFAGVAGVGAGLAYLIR
pKi: −log10 of the molar value.
Where pKi equals or exceeds 7, the correct label is satisfied; where it does not, the label is not satisfied.

Prompt: Check the entry `O=C1Cc2cccc(c2)OC[C@@H]2CC[C@H]2CN2C[C@@]3(CCCc4cc(Cl)ccc43)COc3ccc(cc32)S(=O)(=O)N1` : does pKi equal or exceed 7?
Completion: satisfied

Prompt: Check the entry CC(=O)NS(=O)(=O)c1ccc2c(c1)N(Cc1cnn(C)c1)CC1(CCCc3cc(Cl)ccc31)CO2 (stereo not drawn) : does pKi equal or exceed 7?
Completion: not satisfied

Prompt: Check the entry CC(C)(C)OC(=O)N1CCC(C(=O)NS(=O)(=O)c2ccc3c(c2)N(CC2CCC2)CC2(CCCc4cc(Cl)ccc42)CO3)CC1 (stereo not drawn) : does pKi equal or exceed 7?
Completion: satisfied

Prompt: Check the entry CC(C)(C)OC(=O)N1CCC(CC(=O)NS(=O)(=O)c2ccc3c(c2)N(CC2CCC2)CC2(CCCc4cc(Cl)ccc42)CO3)CC1 (stereo not drawn) : does pKi equal or exceed 7?
Completion: satisfied

Prompt: Check the entry C=CCCCC(=O)NS(=O)(=O)c1ccc2c(c1)N(Cc1cnn(CC=C)c1)CC1(CCCc3cc(Cl)ccc31)CO2 (stereo not drawn) : does pKi equal or exceed 7?
Completion: not satisfied

Prompt: Check the entry `Cc1cc(CC(=O)NS(=O)(=O)c2ccc3c(c2)N(CC2CCC2)C[C@@]2(CCCc4cc(Cl)ccc42)CO3)nn1C` : does pKi equal or exceed 7?
Completion: satisfied

Where do these numbers come from? They come from patent US11130769B2.
